METHOD_NOTES: Absolute oral bioavailability in rat at 10 mg/kg
Type: ADME, organism-based
Parameters: dosed compound name [14C]Mirabegron
CONDITION_DETAILS: in vivo
ATTRIBUTE_MEASURED: bioavailability (%)
Kindly answer with a numeric value in %, unit omitted.

Enquiry: Endpoint output: bioavailability of Nc1nc(CC(=O)Nc2ccc(CCNC[C@H](O)c3ccccc3)cc2)cs1 . Value?
Return: 48.4

----------
Test system: Plasma
METHOD_NOTES: Drug recovery in healthy human plasma treated with [14C]mirabegron at 160 mg, po as single dose measured at 2 hrs
Format: ADME, organism-based
Set-up: dosed compound name [14C]Mirabegron
CONDITION_DETAILS: in vivo
ATTRIBUTE_MEASURED: Compound recovery (%)
Kindly answer with a numeric value in %, unit omitted.

# SMILES_INPUT, Compound recovery (%)
records = [
    ("Nc1nc(CC(=O)Nc2ccc(CCN(C[C@H](O)c3ccccc3)O[C@@H]3O[C@H](C(=O)O)[C@@H](O)[C@H](O)[C@H]3O)cc2)cs1", 6.9),
    ("CC(=O)Nc1ccc(CCNC[C@H](O)c2ccccc2)cc1.Cl", 3.7),
    ("Nc1nc(CC(=O)Nc2ccc(CC(=O)O)cc2)cs1.O=C(O)C(F)(F)F", 2.2),
]

# context switch: different molecule, same Compound recovery
Enquiry: Endpoint output: Compound recovery of Cl.Nc1ccc(CCNC[C@H](O)c2ccccc2)cc1 . Value?
Return: 3.3

----------
System: Plasma
METHOD_NOTES: Drug recovery in healthy human plasma treated with [14C]mirabegron at 160 mg, po as single dose measured at 8 hrs
Format: ADME, organism-based
Set-up: dosed compound name [14C]Mirabegron
CONDITION_DETAILS: in vivo
ATTRIBUTE_MEASURED: Compound recovery

# MOLECULE, TARGET_OR_TEST_SYSTEM, ATTRIBUTE_MEASURED, REPORTED_MEASUREMENT
records = [
    ("Nc1ccc(CCNCC(O)c2ccccc2)cc1O[C@@H]1O[C@H](C(=O)O)[C@@H](O)[C@H](O)[C@H]1O (stereo partly specified)", "Plasma", "Compound recovery", "Below limit of detection"),
    ("Cl.Nc1ccc(CCNC[C@H](O)c2ccccc2)cc1", "Plasma", "Compound recovery", "6.2%"),
    ("CC(=O)Nc1ccc(CC(=O)O)cc1 [ACTARIT]", "Plasma", "Compound recovery", "Below limit of detection"),
    ("Nc1nc(CC(=O)Nc2ccc(CC(=O)O)cc2)cs1.O=C(O)C(F)(F)F", "Plasma", "Compound recovery", "Below limit of detection"),
    ("Nc1nc(CC(=O)Nc2ccc(CCN(C[C@H](O)c3ccccc3)O[C@@H]3O[C@H](C(=O)O)[C@@H](O)[C@H](O)[C@H]3O)cc2)cs1", "Plasma", "Compound recovery", "3.5%"),
]

Enquiry: Endpoint output: Compound recovery of CC(=O)Nc1ccc(CCNC[C@H](O)c2ccccc2)cc1.Cl . Value?
Return: 9.4%

----------
METHOD_NOTES: Terminal elimination phase half life in healthy human plasma at 160 mg, po as single dose
Type: ADME, organism-based
Parameters: dosed compound name [14C]Mirabegron
CONDITION_DETAILS: read-out: beta t1/2 (converted)
ATTRIBUTE_MEASURED: half-life
Output should be the measured figure followed by the unit it is expressed in.

Enquiry: Endpoint output: half-life of Nc1nc(CC(=O)Nc2ccc(CCNC[C@H](O)c3ccccc3)cc2)cs1 . Value?
Return: 47.9 h

----------
METHOD_NOTES: Absolute oral bioavailability in dog at 0.5 mg/kg
Format: ADME, organism-based, Canis lupus familiaris
Design: dosed compound name [14C]Mirabegron
CONDITION_DETAILS: in vivo
ATTRIBUTE_MEASURED: bioavailability (%)
Kindly answer with a numeric value in %, unit omitted.

Enquiry: Endpoint output: bioavailability of Nc1nc(CC(=O)Nc2ccc(CCNC[C@H](O)c3ccccc3)cc2)cs1 . Value?
Return: 64.6

----------
METHOD_NOTES: Apparent oral clearance in healthy human plasma at 160 mg, po as single dose
Assay type: ADME, organism-based
Set-up: dosed compound name [14C]Mirabegron
ATTRIBUTE_MEASURED: CL/F (mL/min)
Kindly answer with a numeric value in mL/min, unit omitted.

Enquiry: Endpoint output: CL/F of Nc1nc(CC(=O)Nc2ccc(CCNC[C@H](O)c3ccccc3)cc2)cs1 . Value?
Return: 1180

----------
METHOD_NOTES: Drug recovery in healthy human urine at 160 mg, po as single dose measured up to 48 hrs
Format: ADME, organism-based
Design: dosed compound name [14C]Mirabegron
CONDITION_DETAILS: read-out: Compound recovery
ATTRIBUTE_MEASURED: dose excreted at 48 h (%)
Kindly answer with a numeric value in %, unit omitted.

Enquiry: Endpoint output: dose excreted at 48 h of Nc1nc(CC(=O)Nc2ccc(CCNC[C@H](O)c3ccccc3)cc2)cs1 [MIRABEGRON] . Value?
Return: 18.4

----------
METHOD_NOTES: Tmax in healthy human plasma at 160 mg, po as single dose
Format: ADME, organism-based
Set-up: dosed compound name [14C]Mirabegron
ATTRIBUTE_MEASURED: Tmax (h)
Kindly answer with a numeric value in h, unit omitted.

Enquiry: Endpoint output: Tmax of Nc1nc(CC(=O)Nc2ccc(CCNC[C@H](O)c3ccccc3)cc2)cs1 . Value?
Return: 1

----------
METHOD_NOTES: AUC (infinity) in healthy human plasma at 160 mg, po as single dose
Type: ADME, organism-based
Parameters: dose 160 mg, route oral, time infinity, dosed compound name [14C]Mirabegron
ATTRIBUTE_MEASURED: AUC(0-inf)
Output should be the measured figure followed by the unit it is expressed in.

Enquiry: Endpoint output: AUC(0-inf) of Nc1nc(CC(=O)Nc2ccc(CCNC[C@H](O)c3ccccc3)cc2)cs1 . Value?
Return: 2280 ng·h/mL

----------
METHOD_NOTES: Drug recovery in healthy human urine treated with [14C]mirabegron at 160 mg, po as single dose measured up to 48 hrs
Assay type: ADME, organism-based
Parameters: dosed compound name [14C]Mirabegron
CONDITION_DETAILS: in vivo
ATTRIBUTE_MEASURED: Compound recovery (%)
Kindly answer with a numeric value in %, unit omitted.

// below: answered molecules
# MOLECULE, UNIT_TAG, Compound recovery
rows = [
    ("Nc1ccc(CCNCC(O)c2ccccc2)cc1O[C@@H]1O[C@H](C(=O)O)[C@@H](O)[C@H](O)[C@H]1O (stereo partly specified)", "%", 2),
    ("Nc1nc(CC(=O)Nc2ccc(CC(=O)O)cc2)cs1.O=C(O)C(F)(F)F", "%", 1.3),
    ("CC(=O)Nc1ccc(CC(=O)O)cc1 [ACTARIT]", "%", 0.6),
]

Enquiry: Endpoint output: Compound recovery of Cl.Nc1ccc(CCNC[C@H](O)c2ccccc2)cc1 . Value?
Return: 1.7

Enquiry: Now the same for Nc1nc(CC(=O)Nc2ccc(CCN(C[C@H](O)c3ccccc3)O[C@@H]3O[C@H](C(=O)O)[C@@H](O)[C@H](O)[C@H]3O)cc2)cs1
Return: 0.6

Enquiry: Now the same for CC(=O)Nc1ccc(CCNC[C@H](O)c2ccccc2)cc1.Cl
Return: 2.9
